# OD450 at 0.001 nM per record follows
Target: T1, human CD19 exon1-3-His tag protein (human, UniProt P15391 20-186, limits assumed)
T1 construct: membrane-distal part of the extracellular region, made in HEK293E cells; not shown: His tag
T1 sequence (looked up): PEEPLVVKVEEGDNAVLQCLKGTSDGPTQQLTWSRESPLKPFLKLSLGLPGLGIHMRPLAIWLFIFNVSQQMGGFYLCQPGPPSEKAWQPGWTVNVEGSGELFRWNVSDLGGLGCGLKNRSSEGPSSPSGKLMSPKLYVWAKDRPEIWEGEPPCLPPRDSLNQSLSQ
Test: ELISA, coated human CD19 exon 1-3-His

BINDER: F3.121.4-L2H1 (antibody, mouse IgG1, kappa, V domains shown, humanized antibody of F3.121.4, VL2+VH1, murine IgG1 constant regions) VH: EVQLVQSGAEVKKPGASVKVSCKASGYTFTNYWMHWVRQAPGQRLEWMGEIDPSDNYANYNQEFQGRVTITVDKSASTAYMELSSLRSEDTAVYYCARHDGYFGALDYWGQGTTVTVSS VL: EIVLTQSPDFQSVTPKEKVTITCSASSSISSNYLHWYQQKPDQSPKLLIKRTSNLASGVPSRFSGSGSGTDFTLTINSLEAEDAATYYCQQASSIPRMFTFGQGTKLEIKR
OD450 at 0.001 nM (OD450): 0.05
//
BINDER: F3.121.4-L3H1 (antibody, mouse IgG1, kappa, V domains shown, humanized antibody of F3.121.4, VL3+VH1, murine IgG1 constant regions) VH: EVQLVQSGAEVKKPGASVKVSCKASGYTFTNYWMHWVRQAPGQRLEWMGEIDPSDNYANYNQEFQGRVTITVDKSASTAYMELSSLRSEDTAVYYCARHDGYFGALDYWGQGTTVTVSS VL: EIVLTQSPDFQSVTPKEKVTITCSASSSISSNYLHWYQQKPDQSPKFLIYRTSNLASGVPSRFSGSGSGTDFTLTINSLEAEDAATYYCQQASSIPRMFTFGQGTKLEIKR
OD450 at 0.001 nM (OD450): 0.05
//
BINDER: F3.121.4 (antibody, human IgG1, V domains shown, human-murine chimeric antibody, human IgG1 constant; also called chimeric antibody F3.121.4) VH: QVQLQQPGAELVVPGTSVKLSCKASGYTFTNYWMHWVKQRPGQGLEWIGEIDPSDNYANYNQEFQGKATLTVDKSSSTAYMQLSSLTSDDSAVYYCARHDGYFGALDYWGQGTSVTVSS VL: EIVLTQSPTTMAASPGEKITITCSASSSISSNYLHWYQQKPGFSPKFLIYRTSNLASGVPARFSGSGSGTSYSLTIGTMEAEDVATYYCQQASSIPRMFTFGSGTKLEIK
OD450 at 0.001 nM (OD450): 0.05
